Kindly state median log2 fold change for each of the entries shown.
Molecular target: GABARAP, O95166
Sequence (O95166 whole entry, the tested form may be a part): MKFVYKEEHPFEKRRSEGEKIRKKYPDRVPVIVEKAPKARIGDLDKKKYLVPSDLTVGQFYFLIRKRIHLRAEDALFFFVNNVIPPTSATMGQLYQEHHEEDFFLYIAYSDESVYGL
Experiment: median log2 fold change of GCK-ALFA target abundance (FLAG IP / Myc IP barcode read proportion) (log2 ratio); each designed protein is fused to an ALFA-tag nanobody in HEK293 cells to bring the named protein to FLAG-tagged glucokinase (GCK); Myc marks an untargeted standard; higher = target protein stabilised (more abundant)
Settings: target protein: 3xFLAG-MCP-GCK-ALFA reporter; HEK293 landing pad (RPLP)
In all, about 4,500 sequences were measured (“median log2 fold change of GCK-ALFA target abundance (FLAG IP / Myc IP barcode read proportion)”: median about 0.078, lowest 2% from about -0.6 on). The sample as a whole holds a higher share of the lowest values than the screen did.
# answer = number (no unit)

Consider GBRAP_11_2845 (protein) KKEKLKEIAEQADKVIALLDELIAAGTDDEELWKKLEEQLKKLQELVEKYLDESEKELAKLAKEELEEAKADPANAEQHLNNAKAFVSTLQGLVLLEIEE . Its measured median log2 fold change is 0.0872

Consider GBRAP_11_2687 (protein) KKEKLEEGAKLAEELAKLIEELLKEGVDNEKLLKELEKKLKELEKLTKEYADKASQKLTEDIKETWEEMLKDPEKAEEYAKEMLAGARVLAGDYLLEIEE . Its measured median log2 fold change is 0.232

From: the supplement of paper PMC12632987
